Test system: FXR:RXRa (NR concentration 270 nM, RXRa partner concentration 90 nM)
Test: PBM binding z-score (relative to random genomic background probes); higher = stronger binding; sequences stand for … in GC…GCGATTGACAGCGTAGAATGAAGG
metric.name: PBM binding z-score

* AATACAGGGTCACTAGGTCAGAGTAGGTACGAAT | 6.69
* ACTAGTTGCTCAGCTGAGGTCACACACAATTCGG | 2.75
* CTATGTAGGTTATGGGGGTCATTCAGTTTGAAAG | 5.57
* TTACAAAGGTGAAAGGTCGTTGATGCACGCCTTG | 5.91
* AGTCAAATTTCACTAGGTAACGTAAGATTCAGCT | -0.177
* ATATGTAGGTTAGGGTCATACAGAAAGTAGGGAA | 4.95
* CAAACTAGGCCAAGGTCAAAGTCGGTTTGTGCCA | 4.09
* CGTCCAAGGTCATAGGAGGTCATTGAAGACAGAT | 7.83

* * *

System: VDR homodimer (NR concentration 270 nM)
Assay: PBM binding z-score (relative to random genomic background probes); higher = stronger binding; sequences stand for … in GC…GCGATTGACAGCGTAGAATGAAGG
Collected PBM binding z-score values appear next to each entry.
metric.name: PBM binding z-score

• CAAACTAGGTCACCGGAAAGTCAAAGTCCGCATG = 0.741
• ATCGAAAGGTCGACGAGGTGAGAATACACCGTTT = 0.942
• CCGACTGGGGCAACGGTTACCATACTCAGTACGA = -0.248
• CGAACTAGGGCACCAGGACAGTGAAGAGGTTGGA = -0.274
• CGTCAACGTTCAACTAAGGTAACGTAAAGCACGC = 0.137
• TCTCGGAGGACACGAAGGTCAAAGCTTTCCAGAG = 2.67

* * *

Test system: RARg:RXRa (NR concentration 270 nM, RXRa partner concentration 90 nM)
Assay: PBM binding z-score (relative to random genomic background probes); higher = stronger binding; sequences stand for … in GC…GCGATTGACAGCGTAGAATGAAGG
# binarize PBM binding z-score: threshold 5 inclusive, high side t, low side f

• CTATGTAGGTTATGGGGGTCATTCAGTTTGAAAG = t
• CCGAGCAGGTTACGAGGGGGCATTCAGTGCGAAT = f
• TCTACTTGGTCACGGAGGTCACACACGACGGGTA = t
• GATACAGAGTCAGCTAGAGGCCAGAGTATGGAAA = f
• CGAACTAGGTCACCAGGACGGTGAAGAGGTTGGA = f
• CGTCCAAGGTCAATGCTAGCTCAGTGAAAGCATT = t
• TCGAGTAGGCTACGGGGGCATTCAGGGATGAAGA = f
• ATATGTAGGTTACATCCGGGTCATTCTGGCTATG = f
• AGTCAAAGTTCATCTTGGTAACGTAAGATATGCT = t
• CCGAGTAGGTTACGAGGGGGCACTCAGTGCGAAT = f
• CGATCTAGGTCAAAGGACAGTGAAAGGCGACGTA = f
• TTACCAAGGTCAGCTGAGGTCGTTGATCCAACTC = t
• CGAACTAGGTCAACGGACAGTGAAAGGCGACGTA = f
• TCGAGTAGGTTACGGGGGCATTCACGGATGAAGA = f
• ACTTACGGGTCAAGGAGGTTATAGCACGCGTATA = t
• CCTACTGGGCCATTGAGAGGTCATTGATCATATG = f
• CCTGCTAGTTCAATGGTCAGCTAAAGCAGCTCGC = f
• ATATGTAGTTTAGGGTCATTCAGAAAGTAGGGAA = f
• CGAACTAGGTCACCAGGACTGTGAAGAGGTTGGA = f
• CCGAGTAGGTTACGCGGGGGCATTCAGTGCGAAT = f
• CAAACTAGGTCAAAGGTCAAAGACGAGCCAACCA = t
• TCTAGCTGGTCAAAGGTCACACACTCGAAATGCG = t
• CAAACTAGGTCACCGGGAGGTCAAAGTCCGCATG = t
